The values you see were collected from patent US20230357253A1.

- measured-on: human STING protein (Homo sapiens (Human), UniProt Q86WV6)
- Sequence (Q86WV6 whole entry): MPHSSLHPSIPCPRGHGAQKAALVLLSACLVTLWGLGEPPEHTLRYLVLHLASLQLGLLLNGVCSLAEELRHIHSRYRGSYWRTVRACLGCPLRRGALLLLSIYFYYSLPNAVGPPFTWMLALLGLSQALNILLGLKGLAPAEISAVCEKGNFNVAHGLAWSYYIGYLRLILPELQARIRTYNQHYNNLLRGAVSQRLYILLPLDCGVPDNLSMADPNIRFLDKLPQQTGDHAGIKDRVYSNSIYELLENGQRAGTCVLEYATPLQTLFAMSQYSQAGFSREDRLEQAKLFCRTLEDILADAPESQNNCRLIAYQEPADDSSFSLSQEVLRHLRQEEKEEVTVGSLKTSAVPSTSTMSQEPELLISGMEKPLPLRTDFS
- method-summary: WT STING binding assay (HTRF, competition with labeled 2′3′cGAMP)
- test-conditions: recombinant 6×His-tagged human STING, three hours at room temperature
quantity: IC50

>>> value_reported("O=C(Nc1cc(CCCc2cc(NC(=O)c3ccc(-n4ccnc4)nn3)c(C(=O)O)cc2F)c(F)cc1C(=O)O)c1cccnn1")
"10 to 100 nM"
>>> value_reported("O=C(Nc1cc(CCOc2cc(NC(=O)c3ccc(-n4ccnc4)nn3)c(P(=O)(O)O)cc2F)c(F)cc1C(=O)O)c1ccc(-n2ccnc2)nn1")
"100 to 1000 nM"
>>> value_reported("O=C(Nc1cc(CCOc2c(F)cc(C(=O)O)c(NC(=O)c3ccc4nnnn4n3)c2F)c(F)cc1C(=O)O)c1ccc(-n2ccnc2)nn1")
"100 to 1000 nM"
>>> value_reported("COC(=O)c1ccc(OCCCCOc2cc(NC(=O)c3ccc4nnnn4n3)c(C(=O)O)cc2F)cc1NC(=O)c1ccc(-n2ccnc2)nn1")
"100 to 1000 nM"
>>> value_reported("O=C(Nc1cc(OCCCCOc2cc(NC(=O)c3ccc4nnnn4n3)c(C(=O)O)cc2Cl)ccc1C(=O)O)c1ccc(-n2ccnc2)nn1")
"10 to 100 nM"
>>> value_reported("C#Cc1cc(C(=O)O)c(NC(=O)c2ccc(-n3ccnc3)nn2)cc1CCOc1cc(NC(=O)c2ccc(-n3ccnc3)nn2)c(C(=O)O)cc1F")
"100 to 1000 nM"

---

- measured-on: human STING protein (Homo sapiens (Human), UniProt Q86WV6)
- method-summary: WT STING binding assay (HTRF, competition with labeled 2′3′cGAMP)
- test-conditions: recombinant 6×His-tagged human STING, three hours at room temperature
Quick reference: IC50 of the listed items.
quantity: IC50

>>> value_reported("COc1cc(C(=O)O)c(NC(=O)c2ccc3nnnn3n2)cc1CCCc1cnc(C(=O)O)c(NC(=O)c2ccc(-n3ccnc3)nn2)c1")
"0.1 to 1 µM"
>>> value_reported("COc1cc(C(=O)O)c(NC(=O)c2ccc(-n3ccnc3)nn2)cc1CSCc1cc(NC(=O)c2ccc(-n3ccnc3)nn2)c(C(=O)O)cc1F")
"0.01 to 0.1 µM"
>>> value_reported("COc1cc(C(=O)O)c(NC(=O)c2ccc3nnnn3n2)cc1CCCc1ccc(C(=O)O)c(NC(=O)c2ccc(-n3ccnc3)nn2)c1")
"0.01 to 0.1 µM"
>>> value_reported("O=C(Nc1cc(OCCc2cc(NC(=O)c3ccc(-n4ccnc4)nn3)c(C(=O)O)nc2Cl)c(F)cc1C(=O)O)c1ccc(-n2ccnc2)nn1")
"0.01 to 0.1 µM"
>>> value_reported("O=C(Nc1cc(OCCCCOc2cnc(C(=O)O)c(NC(=O)c3ccc(-n4ccnc4)nn3)c2)c(F)cc1C(=O)O)c1ccc2nnnn2n1")
"0.01 to 0.1 µM"
>>> value_reported("O=C(Nc1cc(OCCc2cc(NC(=O)c3ccc(-n4ccnc4)nn3)c(-c3nn[nH]n3)cc2F)c(F)cc1C(=O)O)c1ccc(-n2ccnc2)nn1")
"0.1 to 1 µM"

---

- measured-on: human STING protein (Homo sapiens (Human), UniProt Q86WV6)
- method-summary: WT STING binding assay (HTRF, competition with labeled 2′3′cGAMP)
- test-conditions: recombinant 6×His-tagged human STING, three hours at room temperature
quantity: IC50

>>> value_reported("COc1cc(NC(=O)c2ccc(-n3ccnc3)nn2)c(C(=O)O)cc1OCCc1cc(NC(=O)c2ccc(-n3ccnc3)nn2)c(C(=O)O)cc1F")
"10 to 100 nM"
>>> value_reported("O=C(Nc1cc(OCCCCOc2ccc(C(=O)O)c(NC(=O)c3ccc(-n4ccnc4)nn3)c2)ccc1C(=O)O)c1ccc(-n2ccnc2)nn1")
"100 to 1000 nM"
>>> value_reported("NC(=O)c1nnn2nc(C(=O)Nc3cc(CCOc4cc(NC(=O)c5ccc(-n6ccnc6)nn5)c(C(=O)O)cc4F)c(F)cc3C(=O)O)ccc12")
"10 to 100 nM"
